The values you see were collected from ChEMBL document CHEMBL3351764.

# studySystem: Orexin receptor type 2 (Homo sapiens) (UniProt O43614)
# Sequence (O43614 whole entry): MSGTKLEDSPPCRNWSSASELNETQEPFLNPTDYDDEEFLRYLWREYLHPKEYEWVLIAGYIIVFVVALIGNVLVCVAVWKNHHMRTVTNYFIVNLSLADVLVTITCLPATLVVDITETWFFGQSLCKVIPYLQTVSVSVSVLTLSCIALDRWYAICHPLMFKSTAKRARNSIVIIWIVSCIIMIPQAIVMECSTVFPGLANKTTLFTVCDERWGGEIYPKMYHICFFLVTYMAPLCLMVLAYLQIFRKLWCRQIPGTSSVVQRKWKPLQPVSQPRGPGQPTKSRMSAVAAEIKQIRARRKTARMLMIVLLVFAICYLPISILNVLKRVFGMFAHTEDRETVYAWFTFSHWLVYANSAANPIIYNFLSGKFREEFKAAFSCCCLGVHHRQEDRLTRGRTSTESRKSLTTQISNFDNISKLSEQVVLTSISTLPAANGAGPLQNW
# measurementNotes: Agonist activity at human orexin 2 receptor at 100 uM to 5 mM
The source made the active and inactive calls. The calls are words filed in the database; no cut-off is given here.
quantityName: Activity

compound	experimentalResult
O=c1c(O)c(-c2ccc(Cl)cc2Cl)oc2ccccc12	inactive
COc1cc(-c2oc3ccccc3c(=O)c2O)ccc1O	inactive
O=c1c(O)c(-c2cccc(Cl)c2)oc2ccccc12	inactive
COc1ccc(C2C=Cc3ccccc3O2)cc1 (racemic)	inactive
CN(C)c1ccc(C2C=Cc3ccccc3O2)cc1 (racemic)	inactive

Read the next record carefully.
Noted for "COc1cc(-c2cc(=O)c3ccccc3o2)ccc1O" : its Activity reads inactive
